assay: Pharmacokinetics in MV4–11 xenografted nude mice (plasma and tumor); assay type: in vivo; details: nude, mouse; plasma; single oral 1 mg/kg; read-out: Cmax, plasma concentration
Measurement kind: Cmax

**Q:** Recorded Cmax of CCc1nc(C(N)=O)c(Nc2ccc(N3CCC(N4CCN(C)CC4)CC3)c(OC)c2)nc1NC1CCOCC1 , please.
**A:** 6.56 ng/mL

* * *

assay: Pharmacokinetics in MV4–11 xenografted nude mice (plasma and tumor); assay type: in vivo; settings: nude, mouse; plasma; single oral 1 mg/kg; read-out: Time of maximal plasma concentration
Measurement kind: Tmax (h)
Write the value in h as a bare number.

**Q:** What Tmax value was documented for this compound, CCc1nc(C(N)=O)c(Nc2ccc(N3CCC(N4CCN(C)CC4)CC3)c(OC)c2)nc1NC1CCOCC1 ?
**A:** 2
